EXPERIMENTAL SYSTEM: human uPAR (urokinase Plasminogen Activator Receptor), in solution at 2.5 nM in the competition SPR assay (human) (UniProt Q03405)
Sequence (Q03405 23-305 limits assumed): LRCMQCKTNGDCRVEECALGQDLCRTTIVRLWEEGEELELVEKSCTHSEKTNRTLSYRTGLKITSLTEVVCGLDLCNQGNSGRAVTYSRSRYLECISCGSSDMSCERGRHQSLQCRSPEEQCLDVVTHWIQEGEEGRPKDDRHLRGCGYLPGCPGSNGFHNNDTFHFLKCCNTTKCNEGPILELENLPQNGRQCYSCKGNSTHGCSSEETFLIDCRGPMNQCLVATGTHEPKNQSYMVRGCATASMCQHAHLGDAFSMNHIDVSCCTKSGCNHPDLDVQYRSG
TEST PROTOCOL: SPR competition: 2.5 nM uPAR pre-incubated with dilution series of conjugate, injected over immobilised human uPA
Primed or numbered codes have the meaning given here. [ ]: non-standard residue; d: D form. Cha = N[C@@H](CC1CCCCC1)C(=O)O; IRDye800CW′ = not defined here; AEEA = NCCOCCOCC(=O)O
METRIC NAME: IC50 (nM)
Expressed in nM, but write only the number.

IN: # IC50 lookup, item {IRDye800CW′}-EE[AEEA][AEEA]D[Cha]F[dS][dR]YLWS-OH
OUT: 24
